biological target: human IL-21R expressed on cells (human, UniProt Q9HBE5 20-538); assay: cell-based or functional assay
Sequence (Q9HBE5 20-538 limits assumed): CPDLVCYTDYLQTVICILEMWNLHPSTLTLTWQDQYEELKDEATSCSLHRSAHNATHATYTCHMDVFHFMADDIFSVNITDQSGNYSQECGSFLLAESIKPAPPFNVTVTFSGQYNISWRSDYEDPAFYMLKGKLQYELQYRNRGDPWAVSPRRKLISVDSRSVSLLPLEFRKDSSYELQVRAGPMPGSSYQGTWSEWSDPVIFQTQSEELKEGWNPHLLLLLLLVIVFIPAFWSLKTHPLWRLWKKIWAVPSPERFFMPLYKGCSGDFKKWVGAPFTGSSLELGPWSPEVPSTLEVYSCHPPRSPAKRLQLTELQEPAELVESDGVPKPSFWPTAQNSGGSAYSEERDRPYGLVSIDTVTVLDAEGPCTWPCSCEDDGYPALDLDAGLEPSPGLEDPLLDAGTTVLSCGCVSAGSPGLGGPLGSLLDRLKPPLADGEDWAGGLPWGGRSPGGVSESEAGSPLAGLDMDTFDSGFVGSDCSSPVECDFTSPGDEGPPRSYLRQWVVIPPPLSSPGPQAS
OBSERVED PROPERTY: IC50 (nM) in Human IL-21R-BaF3 Neutralization Assay
A number alone suffices; assume nM.

-- ask Name the recorded IC50 (nM) in Human IL-21R-BaF3 Neutralization Assay for scFv L8 (scFv) scFv: QVQLQESGPGLVKTSETLSLTCAVSGYSISSGYYWGWIRQPPGKGLEWIGSISHTGNTYYNPPLKSRVTISVDTSKNQFSLKLSSVTAADTAVYYCARGGGISRPEYWGKGTLVTVSSGGGGSGGGGSGGGGSALSSELTQDPPVSVALGQTVTLTCQGDSLRTYYASWYQQKSGQAPILLLYGKHKRPSGIPDRFSGSTSGDTASLTITGAQAEDEADYYCTTRSTQGNPHVLFGGGTQLTVL .
-- reply 4.1

-- ask Name the recorded IC50 (nM) in Human IL-21R-BaF3 Neutralization Assay for scFv H4 (scFv) scFv: QVQLQESGPGLVKTSETLSLTCAVSGYSISSGYYWGWIRQPPGKGLEWIGSISHTGNTYYNPPLKSRVTISVDTSKNQFSLKLSSVTAADTAVYYCARWLGFGRPEYWGKGTLVTVSSGGGGSGGGGSGGGGSALSSELTQDPPVSVALGQTVTLTCQGDSLRTYYASWYQQKSGQAPILLLYGKHKRPSGIPDRFSGSTSGDTASLTITGAQAEDEADYYCNSRDSSGNPHVLFGGGTQLTVL .
-- reply 3.8

-- ask Name the recorded IC50 (nM) in Human IL-21R-BaF3 Neutralization Assay for scFv L11 (scFv) scFv: QVQLQESGPGLVKTSETLSLTCAVSGYSISSGYYWGWIRQPPGKGLEWIGSISHTGNTYYNPPLKSRVTISVDTSKNQFSLKLSSVTAADTAVYYCARGGGISRPEYWGKGTLVTVSSGGGGSGGGGSGGGGSALSSELTQDPPVSVALGQTVTLTCQGDSLRTYYASWYQQKSGQAPILLLYGKHKRPSGIPDRFSGSTSGDTASLTITGAQAEDEADYYCSSRSRHGNPHVLFGGGTQLTVL .
-- reply 4.2

-- ask Name the recorded IC50 (nM) in Human IL-21R-BaF3 Neutralization Assay for scFv H6 (scFv) scFv: QVQLQESGPGLVKTSETLSLTCAVSGYSISSGYYWGWIRQPPGKGLEWIGSISHTGNTYYNPPLKSRVTISVDTSKNQFSLKLSSVTAADTAVYYCARFFGFGRPEYWGKGTLVTVSSGGGGSGGGGSGGGGSALSSELTQDPPVSVALGQTVTLTCQGDSLRTYYASWYQQKSGQAPILLLYGKHKRPSGIPDRFSGSTSGDTASLTITGAQAEDEADYYCNSRDSSGNPHVLFGGGTQLTVL .
-- reply 13.8

-- ask Name the recorded IC50 (nM) in Human IL-21R-BaF3 Neutralization Assay for scFv L16 (scFv) scFv: QVQLQESGPGLVKTSETLSLTCAVSGYSISSGYYWGWIRQPPGKGLEWIGSISHTGNTYYNPPLKSRVTISVDTSKNQFSLKLSSVTAADTAVYYCARGGGISRPEYWGKGTLVTVSSGGGGSGGGGSGGGGSALSSELTQDPPVSVALGQTVTLTCQGDSLRTYYASWYQQKSGQAPILLLYGKHKRPSGIPDRFSGSTSGDTASLTITGAQAEDEADYYCVTRSAKGNPHVLFGGGTQLTVL .
-- reply 3.7
